- target_under_test: Adenosine receptor A1 (Rattus norvegicus)
- condition_details: Brain; Membrane
- Description: Binding affinity against adenosine A1 receptor in rat brain membrane preparations using N6-[3H]cyclohexyladenosine as radioligand, PCY = log (100000/IC50).
Collected PCY values appear next to each entry.
Number only, no unit.

INSERT INTO assay_data (compound, test_result) VALUES
  ('COc1ccc(-c2nc(O)c3c(n2)c(C)nn3C)cc1OC', 1.7),
  ('COc1cc(OC)cc(-c2nc(O)c3c(n2)c(C)nn3C)c1', 1.2),
  ('Cn1c(=O)c2nc(-c3ccc(Cl)cc3N)[nH]c2n(C)c1=O', 5.4),
  ('Cc1nn(C)c2c(O)nc(-c3ccc(Cl)cc3N)nc12', 2.5),
  ('Cn1c(=O)c2nc(-c3ccc(N)cc3)[nH]c2n(C)c1=O', 4.7);

Briefly, PCY measured for Cc1nn(C)c2c(O)nc(-c3ccc([N+](=O)[O-])cc3)nc12 : 2.1

Briefly, PCY measured for Cc1nn(C)c2c(O)nc(-c3cccc([N+](=O)[O-])c3)nc12 : 1.9

Briefly, PCY measured for Cc1nn(C)c2c(O)nc(-c3ccccc3N)nc12 : 2.6

Briefly, PCY measured for Cn1c(=O)c2nc(Cc3ccccc3)[nH]c2n(C)c1=O : 1.8

Briefly, PCY measured for Cc1nn(C)c2c(O)nc(-c3ccc(N)cc3)nc12 : 2.4

----------
Collected pIC50 values appear next to each entry.
- target_under_test: Adenosine receptor A1 (Rattus norvegicus, UniProt P25099)
- Sequence (P25099 whole entry): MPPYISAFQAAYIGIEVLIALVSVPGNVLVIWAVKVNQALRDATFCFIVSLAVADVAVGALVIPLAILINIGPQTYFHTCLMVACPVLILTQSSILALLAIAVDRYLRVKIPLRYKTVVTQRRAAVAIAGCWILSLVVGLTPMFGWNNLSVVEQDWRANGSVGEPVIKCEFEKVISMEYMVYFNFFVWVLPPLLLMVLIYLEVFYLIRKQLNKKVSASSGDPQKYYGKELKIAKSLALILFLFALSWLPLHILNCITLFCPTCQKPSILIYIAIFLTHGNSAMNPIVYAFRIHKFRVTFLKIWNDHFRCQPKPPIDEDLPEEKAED
- method: Binding affinity against adenosine A1 receptor in rat brain membrane preparations using N6-[3H]cyclohexyladenosine as a radioligand
Scale note: pIC50 = -log10(concentration in M).

Reference set, count: 2
INSERT INTO measurements (compound, test_result) VALUES
  ('Cn1c(=O)c2nc(-c3cccc([N+](=O)[O-])c3)[nH]c2n(C)c1=O', 7.30),
  ('Cn1c(=O)c2[nH]c(-c3ccc([N+](=O)[O-])cc3)nc2n(C)c1=O', 8.10);

Now for another entry.
Briefly, pIC50 measured for Cc1nn(C)c2c(=O)[nH]c(-c3ccc(N)cc3)nc12 : 6.42

----------
- target_under_test: UniProt:P25099
- condition_details: Brain; Membrane
Collected PCY values appear next to each entry.
Number only, no unit.

INSERT INTO assay_data (compound, experimental_readout, test_result) VALUES
  ('Cn1c(=O)c2nc(-c3cccnc3)[nH]c2n(C)c1=O', 'PCY', 3.3);

Briefly, PCY measured for COc1cccc(-c2nc(O)c3c(n2)c(C)nn3C)c1 : 1.8

Briefly, PCY measured for Cc1nn(C)c2c(O)nc(-c3ccncc3)nc12 : 2

Briefly, PCY measured for CCn1c(=O)n(C)c(=O)c2[nH]c(-c3ccccc3)nc21 : 4.5

Briefly, PCY measured for COc1cccc(-c2nc3c(=O)n(C)c(=O)n(C)c3[nH]2)c1 : 3.7

Briefly, PCY measured for Cn1c(=O)c2nc(-c3ccc(S(=O)(=O)O)cc3)[nH]c2n(C)c1=O : 3.6

Briefly, PCY measured for Cc1nn(C)c2c(O)nc(-c3ccc(S(=O)(=O)O)cc3)nc12 : 1.6

Briefly, PCY measured for Cc1ccc(-c2nc(O)c3c(n2)c(C)nn3C)cc1 : 2.4

Briefly, PCY measured for Cc1nn(C)c2c(O)nc(-c3ccc(Cl)cc3)nc12 : 2.4

Briefly, PCY measured for COc1ccccc1-c1nc(O)c2c(n1)c(C)nn2C : 1

Briefly, PCY measured for Cc1nn(C)c2c(O)nc(-c3cccnc3)nc12 : 1.5

Briefly, PCY measured for COc1ccc(-c2nc(O)c3c(n2)c(C)nn3C)c(OC)c1 : 1.3

Briefly, PCY measured for Cc1nn(C)c2c(O)nc(Cc3ccccc3)nc12 : 1.9

Briefly, PCY measured for Cn1c(=O)c2nc(-c3ccc(Cl)c(Cl)c3)[nH]c2n(C)c1=O : 4.3

----------
- target_under_test: Adenosine receptor A1 (Rattus norvegicus, UniProt P25099)
- method: Binding affinity against adenosine A1 receptor in rat brain membrane preparations using N6-[3H]cyclohexyladenosine as a radioligand
Collected pIC50 values appear next to each entry.
Scale note: pIC50 = -log10(concentration in M).

Reference set, count: 10
INSERT INTO assay_data (molecule, target_under_test, test_result) VALUES
  ('COc1ccccc1-c1nc2c([nH]1)c(=O)n(C)c(=O)n2C', 'Adenosine receptor A1 (Rattus norvegicus, UniProt P25099)', 6.46),
  ('Cn1c(=O)c2[nH]c(-c3ccc(Cl)cc3N)nc2n(C)c1=O', 'Adenosine receptor A1 (Rattus norvegicus, UniProt P25099)', 9.40),
  ('CCn1nc(C)c2nc(Cc3ccccc3)nc(O)c21', 'Adenosine receptor A1 (Rattus norvegicus, UniProt P25099)', 6.09),
  ('Cc1nn(C)c2c(=O)[nH]cnc12', 'Adenosine receptor A1 (Rattus norvegicus, UniProt P25099)', 4.70),
  ('Cc1nn(C)c2c(=O)[nH]c(Cc3ccccc3)nc12', 'Adenosine receptor A1 (Rattus norvegicus, UniProt P25099)', 5.88),
  ('Cc1nn(C)c2c(=O)[nH]c(-c3ccc(Cl)cc3N)nc12', 'Adenosine receptor A1 (Rattus norvegicus, UniProt P25099)', 6.51),
  ('Cc1ccc(-c2nc3c(C)nn(C)c3c(=O)[nH]2)cc1', 'Adenosine receptor A1 (Rattus norvegicus, UniProt P25099)', 6.40),
  ('COc1ccc(-c2nc3c([nH]2)c(=O)n(C)c(=O)n3C)c(OC)c1', 'Adenosine receptor A1 (Rattus norvegicus, UniProt P25099)', 6.70),
  ('Cn1c(=O)c2[nH]c(-c3ccc(N)cc3)nc2n(C)c1=O', 'Adenosine receptor A1 (Rattus norvegicus, UniProt P25099)', 8.74),
  ('Cn1c(=O)c2nc(-c3ccccc3N)[nH]c2n(C)c1=O', 'Adenosine receptor A1 (Rattus norvegicus, UniProt P25099)', 8.26);

Briefly, pIC50 measured for CC(Sc1nc(SC(C)C(N)=O)c2cnn(-c3ccccc3)c2n1)C(N)=O (stereo not given) : 5.99

Briefly, pIC50 measured for Cc1nn(C)c2c(O)nc(-c3ccccc3N)nc12 : 6.64

Briefly, pIC50 measured for CCn1c(=O)n(C)c(=O)c2[nH]c(-c3ccccc3)nc21 : 8.52

Briefly, pIC50 measured for Cc1nn(C)c2c(=O)[nH]c(-c3ccc(S(=O)(=O)NCCN(C)C)cc3)nc12 : 7.17

Briefly, pIC50 measured for COc1cccc(-c2nc3c(C)nn(C)c3c(=O)[nH]2)c1 : 5.83

----------
- target_under_test: UniProt P25099
- method: Binding affinity against adenosine A1 receptor in rat brain membrane preparations using N6-[3H]cyclohexyladenosine as a radioligand
Collected pIC50 values appear next to each entry.
Scale note: pIC50 = -log10(concentration in M).

INSERT INTO results (compound, target_under_test, experimental_readout, test_result) VALUES
  ('CCn1nc(C)c2nc(-c3ccncc3)[nH]c(=O)c21', 'UniProt P25099', 'pIC50', 6.60),
  ('Cc1ccc(-c2nc3c([nH]2)c(=O)n(C)c(=O)n3C)cc1', 'UniProt P25099', 'pIC50', 9.10),
  ('COc1cc(OC)cc(-c2nc3c([nH]2)c(=O)n(C)c(=O)n3C)c1', 'UniProt P25099', 'pIC50', 6.30),
  ('Cn1c(=O)c2[nH]c(Cc3ccccc3)nc2n(C)c1=O', 'UniProt P25099', 'pIC50', 5.82),
  ('COc1cc(OC)cc(-c2nc(O)c3c(n2)c(C)nn3C)c1', 'UniProt P25099', 'pIC50', 5.15);

Briefly, pIC50 measured for Cn1c(=O)c2[nH]c(-c3cccc(N)c3)nc2n(C)c1=O : 8.00

Briefly, pIC50 measured for Cc1nn(C)c2c(O)nc(-c3ccc(S(=O)(=O)O)cc3)nc12 : 5.64

Briefly, pIC50 measured for Cn1c(=O)c2[nH]c(-c3cccnc3)nc2n(C)c1=O : 7.30

Briefly, pIC50 measured for Cn1c(=O)c2[nH]c(-c3ccc(Cl)cc3)nc2n(C)c1=O : 9.10

Briefly, pIC50 measured for Cn1c(=O)c2nc(-c3ccc(Cl)c(Cl)c3)[nH]c2n(C)c1=O : 8.30

Data credit: ChEMBL document CHEMBL1123597
